Tested on: Nucleic Acid
Test: Inhibition of A73U tRNA(Tyr)-5'Rhd-AM1A T box antiterminator RNA complex assessed as reduction in anisotrophy changes by at 100 uM by fluorescence anisotropy-based assay relative to untreated control
Type: nucleic-acid assay
Values of inhibition greater than or equal to 30% map to t; values below map to f.

                                    molecule  targetorsystem  label
 0  O=C(OCC(O)Cn1cc(CN2CCOCC2)nn1)C1CCCCC1 (configuration not stated)    Nucleic Acid      f
 1  OC1CCCCC1n1cc(CN2CCC(c3ccccc3)CC2)nn1 (configuration not stated)    Nucleic Acid      t
 2  CCOC(=O)C1CCCN(Cc2cn(C3CCCCC3O)nn2)C1 (configuration not stated)    Nucleic Acid      f
 3  CCCCC(O)Cn1cc(CN2CCN(c3ccccc3)CC2)nn1 (configuration not stated)    Nucleic Acid      t
 4  OC(COCc1ccccc1)Cn1cc(CN2CCN(c3ccccc3)CC2)nn1 (configuration not stated)    Nucleic Acid      t
 5  CN(CCCc1ccccc1)Cc1cn(CC(O)COC(=O)NCc2ccccc2)nn1 (configuration not stated)    Nucleic Acid      t
 6  CN(Cc1ccccc1)Cc1cn(CC(O)c2ccccc2)nn1 (configuration not stated)    Nucleic Acid      t
 7  CN(CCc1ccccc1)Cc1cn(CC(O)COC(=O)c2ccccc2)nn1 (configuration not stated)    Nucleic Acid      f
 8  CCOC(=O)C1CCCN(Cc2cn(C3CCCCC3OC(=O)Cc3ccccc3)nn2)C1 (configuration not stated)    Nucleic Acid      f
 9  CCCCCCCC(=O)OCC(O)Cn1cc(CN(CCCC)CCCC)nn1 (configuration not stated)    Nucleic Acid      t
10  CN(Cc1cn(C2CCCCC2OC(=O)c2ccccc2)nn1)CC1CCCCC1 (configuration not stated)    Nucleic Acid      t
11  CN(CCc1ccccc1)Cc1cn(CC(O)COCc2ccccc2)nn1 (configuration not stated)    Nucleic Acid      f
12  O=C(OC1CCCCC1n1cc(CN2CCC(c3ccccc3)CC2)nn1)c1ccccc1 (configuration not stated)    Nucleic Acid      f
13  CN(Cc1cn(CC(O)COC(=O)C2CCCCC2)nn1)CC1CCCCC1 (configuration not stated)    Nucleic Acid      f
14  CN(Cc1cn(CC(O)COC(=O)NCc2ccccc2)nn1)CC1CCCCC1 (configuration not stated)    Nucleic Acid      t
15  CN(CCc1ccccc1)Cc1cn(C2CCCCC2OC(=O)COc2ccccc2)nn1 (configuration not stated)    Nucleic Acid      t
16  CCOC(=O)C1CCCN(Cc2cn(CC(O)COCc3ccccc3)nn2)C1 (configuration not stated)    Nucleic Acid      f
17  O=C(COc1ccccc1)OC1CCCCC1n1cc(CN2CCC(c3ccccc3)CC2)nn1 (configuration not stated)    Nucleic Acid      t
18  CCCCN(CCCC)Cc1cn(C2CCCCC2OC(=O)COc2ccccc2)nn1 (configuration not stated)    Nucleic Acid      f
19  OC1CCCCC1n1cc(CN2CCN(c3ccccc3)CC2)nn1 (configuration not stated)    Nucleic Acid      t
20  CCCCNC(=O)OCC(O)Cn1cc(CN2CCN(c3ccccc3)CC2)nn1 (configuration not stated)    Nucleic Acid      f
21  O=C(NCc1ccccc1)OCC(O)Cn1cc(CN2CCC(c3ccccc3)CC2)nn1 (configuration not stated)    Nucleic Acid      f
